- targetEntity: T1, apo-transferrin (human, UniProt P02787 20-698)
- T1 construct: transferrin (serotransferrin), human, iron-free state; Several paragraphs and legends say only 'transferrin' where the text says apo-transferrin for the same panels; rows told of 'transferrin' alone are tied to this molecule; also called Tf; TRF; source: bought: Sigma (purity greater than 98%)
- testMethodNotes: SPR; transferrin with synthetic peptides (TH16, FX18, RCL19 and their scrambled controls)
- cond: both partners purified
pKd: −log10 of the molar value.
reportedMetric: pKd

RRNHSCEPCQTLAVRSYR (source: synthetic peptide) [FX18] | 6.84

[P] RIGKHSRTRYERNIEK (source: synthetic peptide) [TH16]
[Q] EAAASTAVVIAGRSLNPNR (from the reactive center loop (RCL) of antithrombin; also called synthetic peptide from the RCL of AT; source: synthetic peptide) [RCL19]
Pick the one with the larger pKd: P vs Q Pick one and reply with its label. P
